Item-by-item account of protein stability index
- protocolNotes: protein stability index of a GFP-peptide fusion (yeast GPS) (PSI 1-4); higher = more stable; sorted into four equal gates, so the index is relative within each strain
- studyConditions: ubr1∆

sequence: NDNEGKHISASIDNDFS [YAR002W/NUP60]
protein stability index: 2.92
--
sequence: PFMLQWGIPLIKELRSK [FAS1]
protein stability index: 1.58
--
sequence: DPRNLVNQTGSTKKDTV [YCG1]
protein stability index: 2.86
--
sequence: TVYISSIALLKMLKHGR [RPN11]
protein stability index: 2.79
--
sequence: RKNFKMGPLYQNFAEFM [IRR1]
protein stability index: 1.67
--
sequence: LGLGIAFAGSKNDEVLG [RPN1]
protein stability index: 3.04
--
sequence: KKRNMPLQSIPEIGNRK [SWI1]
protein stability index: 2.63
--
sequence: ATQMTLNTFHFAGVASK [RPO21]
protein stability index: 2.32
--
sequence: SSLIKAGLDKGISINNM [RPO31]
protein stability index: 2.95
--
sequence: RELEQIKPKIALQDKEI [SNF12]
protein stability index: 3.05
--
sequence: SSNQSAPVETKKKRFEI [HRT1]
protein stability index: 3.27
--
sequence: SGQTFAYGVLDSNYKWD [PRE2]
protein stability index: 2.7
--
sequence: GTSVYLVDKRIDMLPML [DIS3]
protein stability index: 2.12
--
sequence: MSSDASTYRLEDVLSSF [SSN2]
protein stability index: 2.56
--
sequence: EFRSAAGQLALDLANSG [YDL116W/NUP84]
protein stability index: 3
--
sequence: TGAASNQSSFNFGNNGA [YOR098C/NUP1]
protein stability index: 2.93
--
sequence: NVLFLRLFNNVKIHSQE [SRP72]
protein stability index: 2.08
--
sequence: QDDDFPLDDAGTIGWDL [MCD1]
protein stability index: 3.06
--
sequence: LNIGLGAVGLKDLTLCR [YCS4]
protein stability index: 2.53
--
sequence: PTSDEPVPESAGKADTS [SRB4]
protein stability index: 3.07
--
sequence: NECIASTSNALKVLSGD [SNF12]
protein stability index: 2.79
--
sequence: SSLSFGPENALNVYHYF [YJL039C/NUP192]
protein stability index: 2.67
--
sequence: RLTFKPWVVYLQILAML [YMR129W/POM152]
protein stability index: 1.05
--
sequence: HYLVNLTSPAFGPHVDV [GRR1]
protein stability index: 3.42
--
sequence: NLSSLIVEINNVSNTFN [YJL041W/NSP1]
protein stability index: 2.58
--
sequence: SKVGSADTGRDDTKETV [RPN11]
protein stability index: 3.04
--
sequence: SVRSLQKRIENGGNSVI [SRP68]
protein stability index: 1.85
--
sequence: TDANGKTIVTGGNGPED [RPO26]
protein stability index: 3.37
--
sequence: NFLQESYEVEHVIQIPL [TAF14]
protein stability index: 2.81
--
sequence: EIDHQEYSPEILQIREE [RRP6]
protein stability index: 3.18
--
sequence: VVDFLKRNGSTLEQKVN [FAS1]
protein stability index: 3.07
--
sequence: SHGNPVVDFLKRNGSTL [FAS1]
protein stability index: 3.11
--
sequence: STLMPGGVDVGPSVESY [SNF5]
protein stability index: 2.68
--
sequence: AVDHRRQNRNQEIFDAN [RPL13A]
protein stability index: 3.34
--
sequence: VYESEMEQCKQRYQDLS [YIL149C/MLP2]
protein stability index: 3.24
--
sequence: YSSYIYKVLKQTHPDTG [HTB1]
protein stability index: 1.81
--
sequence: VEKGVNPTKSKEILDNI [ECM29]
protein stability index: 3.62
--
sequence: QLFSTFDRLNGNDTISK [SSN2]
protein stability index: 2.96
--
sequence: AHAIDQMTWRQWLNNAL [POP8]
protein stability index: 2.58
--
sequence: RLKEKGSRVLIFSQMSR [ISW2]
protein stability index: 2.06
--
sequence: FEIIDEASKKSAVKPRP [FAS1]
protein stability index: 3.3
--
sequence: KIFTPNLLQISAAELER [SNF5]
protein stability index: 1.33
--
sequence: FNDFSNIKTSEWDLYPQ [REC8]
protein stability index: 3.15
--
sequence: SLIKETNQLVLLQKMLN [YML103C/NUP188]
protein stability index: 1.02
--
sequence: TNLISKISLLRPSFQNN [SWP82]
protein stability index: 2.72
--
sequence: VEEVIKLVRDSFTSATE [PRE7]
protein stability index: 3
--
sequence: LLVVIFKKTLRSRISSP [SRB4]
protein stability index: 1.95
--
sequence: VRLQRQKKILSIRLKVP [RPL8B]
protein stability index: 1.25
--
sequence: YESIATYASVTGLFTLE [RPN7]
protein stability index: 1.96
--
sequence: NTSLNINGWKFESLPLK [SWP82]
protein stability index: 3.06
